Biological target: JAK2 (Homo sapiens, UniProt O60674)
Sequence (O60674 whole entry, species assumed): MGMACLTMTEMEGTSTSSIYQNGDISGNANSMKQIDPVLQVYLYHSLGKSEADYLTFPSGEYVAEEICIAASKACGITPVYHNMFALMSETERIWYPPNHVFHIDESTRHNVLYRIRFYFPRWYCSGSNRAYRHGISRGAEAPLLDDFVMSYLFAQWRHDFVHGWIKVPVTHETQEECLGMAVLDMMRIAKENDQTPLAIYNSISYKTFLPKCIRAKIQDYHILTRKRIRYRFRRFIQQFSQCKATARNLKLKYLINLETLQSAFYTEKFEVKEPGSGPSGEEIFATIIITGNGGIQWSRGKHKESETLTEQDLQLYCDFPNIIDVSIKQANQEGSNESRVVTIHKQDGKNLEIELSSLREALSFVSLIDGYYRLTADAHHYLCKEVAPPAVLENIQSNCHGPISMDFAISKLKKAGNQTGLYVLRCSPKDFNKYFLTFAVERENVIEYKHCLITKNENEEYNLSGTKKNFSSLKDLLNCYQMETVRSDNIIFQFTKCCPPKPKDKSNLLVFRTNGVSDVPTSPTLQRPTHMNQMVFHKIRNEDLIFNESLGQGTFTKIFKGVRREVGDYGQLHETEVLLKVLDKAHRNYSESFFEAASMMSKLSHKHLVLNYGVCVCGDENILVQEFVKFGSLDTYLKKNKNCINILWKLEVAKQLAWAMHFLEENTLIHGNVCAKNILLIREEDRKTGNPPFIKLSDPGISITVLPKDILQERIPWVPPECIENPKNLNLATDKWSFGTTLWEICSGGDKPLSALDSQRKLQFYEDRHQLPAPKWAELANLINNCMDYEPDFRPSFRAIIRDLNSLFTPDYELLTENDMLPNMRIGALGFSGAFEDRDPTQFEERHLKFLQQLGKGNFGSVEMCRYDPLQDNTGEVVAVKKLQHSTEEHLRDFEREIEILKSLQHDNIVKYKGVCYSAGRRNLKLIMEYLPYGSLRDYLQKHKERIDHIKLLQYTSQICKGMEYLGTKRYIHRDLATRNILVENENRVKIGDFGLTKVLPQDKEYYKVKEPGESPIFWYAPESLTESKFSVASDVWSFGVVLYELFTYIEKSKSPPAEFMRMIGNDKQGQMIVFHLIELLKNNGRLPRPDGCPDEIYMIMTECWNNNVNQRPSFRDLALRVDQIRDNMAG
Assay endpoint: pIC50
Scale: negative log10 of molar concentration, which is what pIC50 denotes.

Prompt: Return the recorded pIC50 value; entry: NC(=O)Cn1ccc2ccc(-c3cnc(N)c(C(=O)NC4C5CC6CC4CC(O)(C6)C5)n3)cc21 (stereo not shown) [Compound 1]
Completion: 6.92

* * *

Biological target: UniProt:P52333
Sequence (P52333 1-1124): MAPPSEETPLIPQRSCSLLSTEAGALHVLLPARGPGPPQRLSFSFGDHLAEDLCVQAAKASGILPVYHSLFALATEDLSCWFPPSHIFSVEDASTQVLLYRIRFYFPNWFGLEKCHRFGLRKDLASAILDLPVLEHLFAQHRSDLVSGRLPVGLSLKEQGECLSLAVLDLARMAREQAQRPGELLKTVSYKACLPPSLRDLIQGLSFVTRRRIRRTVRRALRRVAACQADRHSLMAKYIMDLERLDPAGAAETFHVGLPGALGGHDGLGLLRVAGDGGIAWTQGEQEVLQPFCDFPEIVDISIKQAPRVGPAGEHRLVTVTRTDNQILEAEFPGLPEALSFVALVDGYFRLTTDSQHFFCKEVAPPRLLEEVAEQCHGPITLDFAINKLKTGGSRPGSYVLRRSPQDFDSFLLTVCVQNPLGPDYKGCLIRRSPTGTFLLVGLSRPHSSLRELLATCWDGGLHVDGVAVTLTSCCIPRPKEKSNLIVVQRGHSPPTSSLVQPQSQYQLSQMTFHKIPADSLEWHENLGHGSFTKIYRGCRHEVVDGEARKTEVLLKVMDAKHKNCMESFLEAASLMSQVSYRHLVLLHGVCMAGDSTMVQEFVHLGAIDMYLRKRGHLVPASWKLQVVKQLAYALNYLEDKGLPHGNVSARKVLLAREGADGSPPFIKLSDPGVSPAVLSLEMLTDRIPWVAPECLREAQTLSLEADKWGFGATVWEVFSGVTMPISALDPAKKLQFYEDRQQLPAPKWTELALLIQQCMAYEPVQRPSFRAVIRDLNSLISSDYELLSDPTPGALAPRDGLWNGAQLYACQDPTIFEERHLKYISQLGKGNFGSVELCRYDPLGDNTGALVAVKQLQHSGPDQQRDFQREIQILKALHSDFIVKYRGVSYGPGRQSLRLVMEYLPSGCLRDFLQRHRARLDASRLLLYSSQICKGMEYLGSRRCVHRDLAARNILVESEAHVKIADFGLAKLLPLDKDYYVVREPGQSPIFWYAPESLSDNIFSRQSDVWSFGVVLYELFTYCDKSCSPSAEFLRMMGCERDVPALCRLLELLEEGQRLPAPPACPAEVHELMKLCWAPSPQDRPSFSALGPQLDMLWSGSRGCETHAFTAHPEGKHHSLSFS
Assay endpoint: IC50 (nM)
The response must be a number in nM with no trailing unit.

Prompt: Return the recorded IC50 value; entry: NC(=O)Cn1ccc2ccc(-c3cnc(N)c(C(=O)NC4C5CC6CC4CC(O)(C6)C5)n3)cc21 (stereo not shown)
Completion: 60

* * *

Test system: total (truncated + full length) C7 in RDEB_L1 cells
Experiment: AlphaLISA quantification of total C7 in RDEB_L1 cells
Assay type: cell-based, human
Conditions: Homo sapiens; Table 5 SAR; C7 AlphaLISA, 20 ng/mL TGFß2 (cell line not given; compound 7 values equal RDEB_L1 of Table 1); read-out: Increase in C7 levels EC50 (rel)
Experimental: The AlphaLISA assay was developed in-house by using the biotin-conjugated rabbit polyclonal antibody anti-C7 (LSBio LS-298147) and conjugating the acceptor beads (PerkinElmer 6772001) to a monoclonal anti-Collagen type VII antibody produced in mouse, clone LH7.2 (Thermo MA5-13,432). Formulation of the mAb clone LH7.2 was exchanged to PBS and concentrated 5 × by using Amicon® Ultra-0.5 centrifugal filters up to 1 mg/ml. […]
Assay endpoint: EC50 (µM)
The response must be a number in µM with no trailing unit.

Prompt: Return the recorded EC50 value; entry: C#Cc1cc(-c2ccncc2)c(-c2cccc(F)c2)nc1N
Completion: 17
